- Assay System: human SCD1 enzyme (Homo sapiens, UniProt O00767)
- Sequence (O00767 1-359): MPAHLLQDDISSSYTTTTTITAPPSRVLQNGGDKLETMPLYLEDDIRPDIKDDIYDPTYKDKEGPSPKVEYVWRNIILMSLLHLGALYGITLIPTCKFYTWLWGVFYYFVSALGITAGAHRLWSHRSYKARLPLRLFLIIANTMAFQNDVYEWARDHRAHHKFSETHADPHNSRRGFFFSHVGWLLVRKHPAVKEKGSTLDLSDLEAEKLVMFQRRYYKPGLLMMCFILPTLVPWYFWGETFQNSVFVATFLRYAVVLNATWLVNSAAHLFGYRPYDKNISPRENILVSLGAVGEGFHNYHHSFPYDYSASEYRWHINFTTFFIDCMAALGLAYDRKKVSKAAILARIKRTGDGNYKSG
- Assay Protocol: Tritiated water release assay (conversion of radiolabeled stearoyl-CoA to oleoyl-CoA)
- Format: biochemical
- Cond: 10 μM concentration of test compounds; microsomal SCD1, 3H stearoyl CoA, 37° C. 30 minutes; percent of control reaction; read-out: % Inhibition
Quantity Measured: inhibition at 10 µM
Could you give the number and then its unit, please?

Consider the reported inhibition at 10 µM for these compounds:
[[record]]
compound = "Fc1ccccc1OC1CCN(c2ccc(C#Cc3ccc(OCCN4CCCCC4)cc3)nn2)CC1"
quantity_measured = "inhibition at 10 µM"
reading = "43%"

[[record]]
compound = "O=C(c1ccccc1C(F)(F)F)N1CCN(c2ccc(C#Cc3cccc(O)c3)nn2)CC1"
quantity_measured = "inhibition at 10 µM"
reading = "99%"

[[record]]
compound = "COc1c(F)ccc(C#Cc2ccc(N3CCC(Oc4ccccc4F)CC3)nn2)c1F"
quantity_measured = "inhibition at 10 µM"
reading = "12%"


Req: Could you share which inhibition at 10 µM value was measured for COc1ccc(C#Cc2ccc(N3CCN(C(=O)c4ccccc4C(F)(F)F)CC3)nc2)cc1 ?
Resp: 26%

Req: Could you share which inhibition at 10 µM value was measured for [O-][n+]1cccc(C#Cc2ccc(N3CCC(Oc4ccccc4F)CC3)nn2)c1 ?
Resp: 24%

Req: Could you share which inhibition at 10 µM value was measured for CC(C)(O)C#Cc1cnc(N2CCN(C(=O)c3ccccc3C(F)(F)F)CC2)nc1 ?
Resp: 22%

Req: Could you share which inhibition at 10 µM value was measured for Oc1ccc(C#Cc2ccc(N3CCC(Nc4ccccc4F)CC3)nn2)cc1 ?
Resp: 96%

Req: Could you share which inhibition at 10 µM value was measured for CC(=O)Oc1ccccc1C#Cc1ccc(N2CCN(C(=O)c3ccccc3C(F)(F)F)CC2)nc1 ?
Resp: 24%

Req: Could you share which inhibition at 10 µM value was measured for CC(=O)Oc1ccc(C#Cc2ccc(N3CCC(Oc4ccccc4F)C3)nn2)cc1 (stereo in doubt) ?
Resp: 96%

Req: Could you share which inhibition at 10 µM value was measured for O=C(O)COc1cccc(C#Cc2ccc(N3CCN(C(=O)c4ccccc4C(F)(F)F)CC3)nc2)c1 ?
Resp: 30%

Req: Could you share which inhibition at 10 µM value was measured for O=C(c1ccccc1C(F)(F)F)N1CCN(c2ncc(C#Cc3cccc(O)c3)cn2)CC1 ?
Resp: 98%
